Readings of EC50 for the listed binders
- TARGET UNDER TEST: T1, human soluble αvβ5 protein (extracellular domains of human αv and β5 integrin subunits) (human, UniProt P06756 31-992; P18084 24-719)
- T1 construct: also called biotin-αvβ5; hsαvβ5
- T1 sequence (P06756 31-992 limits assumed, chain 1 of 2): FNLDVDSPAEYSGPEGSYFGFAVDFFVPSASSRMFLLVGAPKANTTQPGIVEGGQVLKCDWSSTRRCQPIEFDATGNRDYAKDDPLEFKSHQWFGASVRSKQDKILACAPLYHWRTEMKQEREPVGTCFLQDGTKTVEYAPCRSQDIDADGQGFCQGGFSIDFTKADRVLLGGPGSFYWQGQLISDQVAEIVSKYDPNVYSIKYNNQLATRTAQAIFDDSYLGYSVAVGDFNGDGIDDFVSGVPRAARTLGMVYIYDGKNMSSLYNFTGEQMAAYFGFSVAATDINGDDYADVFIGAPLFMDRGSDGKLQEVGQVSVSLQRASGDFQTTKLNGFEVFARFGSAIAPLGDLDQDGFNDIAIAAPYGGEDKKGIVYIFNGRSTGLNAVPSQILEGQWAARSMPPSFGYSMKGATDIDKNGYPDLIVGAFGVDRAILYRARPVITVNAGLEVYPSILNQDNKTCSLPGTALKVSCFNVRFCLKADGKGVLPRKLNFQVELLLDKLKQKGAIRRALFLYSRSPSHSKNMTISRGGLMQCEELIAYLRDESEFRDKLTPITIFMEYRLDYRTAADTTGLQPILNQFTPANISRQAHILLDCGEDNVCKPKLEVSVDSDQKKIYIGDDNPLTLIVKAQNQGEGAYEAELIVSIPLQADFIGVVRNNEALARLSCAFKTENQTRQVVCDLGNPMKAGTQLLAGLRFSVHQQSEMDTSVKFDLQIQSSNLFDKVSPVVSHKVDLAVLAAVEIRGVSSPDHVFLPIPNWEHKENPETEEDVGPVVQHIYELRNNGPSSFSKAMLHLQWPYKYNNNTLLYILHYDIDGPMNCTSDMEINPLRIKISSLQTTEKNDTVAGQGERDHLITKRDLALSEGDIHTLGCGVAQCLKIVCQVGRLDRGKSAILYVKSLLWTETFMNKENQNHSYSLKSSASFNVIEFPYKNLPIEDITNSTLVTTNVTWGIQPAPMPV
- T1 sequence (P18084 24-719 limits assumed, chain 2 of 2): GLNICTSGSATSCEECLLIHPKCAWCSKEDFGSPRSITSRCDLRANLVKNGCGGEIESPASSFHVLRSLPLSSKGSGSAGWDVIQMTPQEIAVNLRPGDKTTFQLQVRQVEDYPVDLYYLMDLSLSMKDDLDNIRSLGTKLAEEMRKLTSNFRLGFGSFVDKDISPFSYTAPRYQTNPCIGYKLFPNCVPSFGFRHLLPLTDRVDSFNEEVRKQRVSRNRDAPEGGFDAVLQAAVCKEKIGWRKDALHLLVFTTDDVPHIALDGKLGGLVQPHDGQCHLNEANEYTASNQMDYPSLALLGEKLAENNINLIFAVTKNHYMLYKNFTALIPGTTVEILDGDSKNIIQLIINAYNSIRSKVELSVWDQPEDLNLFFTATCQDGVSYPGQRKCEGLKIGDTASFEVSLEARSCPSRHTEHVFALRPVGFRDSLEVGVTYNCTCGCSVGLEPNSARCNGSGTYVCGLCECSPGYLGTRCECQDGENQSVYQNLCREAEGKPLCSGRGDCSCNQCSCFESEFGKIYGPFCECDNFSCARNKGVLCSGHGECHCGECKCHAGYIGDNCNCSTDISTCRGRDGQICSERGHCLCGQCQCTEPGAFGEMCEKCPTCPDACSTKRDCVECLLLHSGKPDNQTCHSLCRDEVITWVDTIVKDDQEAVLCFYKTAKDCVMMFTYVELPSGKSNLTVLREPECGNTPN
- METHOD SUMMARY: ELISA, biotin-αvβ5 on streptavidin plate, unpurified antibody
Kindly answer with a numeric value in nM, unit omitted.

BINDER | RESULT UNIT | EC50
VH1/VL0 Agly-hIgG1(T299A) (antibody, V domains shown, also called H1/L0) VH: EVQVVESGGGLVKPGGSLRLSCAASGYTFTSYWMHWVRQAPGKGLEWVGAIYPGNSDTSYNQKFKGRFTISADTSKNTLYLQMNSLKTEDTAVYYCTTTTYGYDWFAYWGQGTLVTVSS VL: DIQMTQSPSSVSASVGDRVTITCKSSQSVLYSSNQKNYLAWYQQKPGKAPKLLIYWASTRESGVPSRFSGSGSGTDFTLTISSLQPEDFATYYCHQYLSSLTFGQGTKVEIK | nM | 1

Input line: # EC50 lookup, item VH4/VL3 Agly-hIgG1(T299A) (antibody, V domains shown, also called H4/L3) VH: EVQVVQSGGGLVKPGESLRLSCKASGYTFTSYWMHWVKQAPGKGLEWVGAIYPGNSDTSYNQKFKGKFTISADTSPNTAYLQMNSLKTEDTAVYYCTTTTYGYDWFAYWGQGTLVTVSS VL: DIQMTQSPSSLTVSVGDRVTMSCKSSQSVLYSSNQKNYLAWYQQKPGKSPKLLIYWASTRESGVPDRFTGSGSGTDFTLTISSVQPEDFATYYCHQYLSSLTFGAGTKLEIK
Output line: 1.7
